Below is a list of entries, each paired with its recorded GI50 value.
System: SK-MEL-5 melanoma
Test: NCI tumour cell line growth inhibition, 48 h
Result Type: GI50

[[record]]
compound = "COc1ccc2c(c1)OCC1c3cc(OC)c4ccccc4c3OC21 (stereo not given)"
result_type = "GI50"
value_measured = "5110 nM"

[[record]]
compound = "COc1cccc2nc(Nc3cccc(NC(=O)c4ccc(N5CCN(C)CC5)c(C(F)(F)F)c4)c3)ccc12"
result_type = "GI50"
value_measured = "1520 nM"

[[record]]
compound = "COc1ccc2[nH]c(C(=O)OCc3ccc4c(Br)cc(Br)c(O)c4n3)cc2c1"
result_type = "GI50"
value_measured = "1610 nM"

[[record]]
compound = "CC[C@]12C=CCN3CC[C@@]4(c5ccc(OC)cc5N(C)[C@H]4[C@@](O)(C(=O)OC)[C@@H]1OC(=O)CCC(=O)O[C@H]1CC[C@H]4[C@@H]5CCC6=CC(=O)CC[C@@H]6[C@H]5CC[C@]14C)[C@@H]32"
result_type = "GI50"
value_measured = "990 nM"

[[record]]
compound = "Cc1nc2ccc(-n3ncc(C(=O)c4cc5ccccc5[nH]4)c3N)cc2[nH]1"
result_type = "GI50"
value_measured = "5460 nM"


* * *

Test system: RPMI-8226 leukemia
Experiment: NCI tumour cell line growth inhibition, 48 h
Where a SMILES comes first, the peptide text is derived from it. [ ]: non-standard residue; d: D form. The star is where a group is joined. ξ: configuration not given here. NMeY = CN[C@@H](Cc1ccc(O)cc1)C(=O)O; Cbz = O=C(OCc1ccccc1)*; ξA = CC(N)C(=O)O
Below is a list of entries, each paired with its recorded TGI value.
Result Type: TGI

[[record]]
compound = "CCCCC/C=C\\C=C\\CCCCCCCCC(=O)OC"
result_type = "TGI"
value_measured = "> 100 µM"

[[record]]
compound = "COc1ccccc1CNCCCN1C(=O)c2ccc3c4c(ccc(c24)C1=O)C(=O)N(CCCNCCCCNCCCN)C3=O"
result_type = "TGI"
value_measured = "10.8 µM"

[[record]]
compound = "COc1nc(=O)[nH]c2c1C(c1ccc([N+](=O)[O-])cc1)c1c(OC)nc(=O)[nH]c1O2"
result_type = "TGI"
value_measured = "> 100 µM"

[[record]]
compound = "O=C(Nn1c(-c2ccccc2)nc2ccccc2c1=O)c1cccc([N+](=O)[O-])c1"
result_type = "TGI"
value_measured = "> 100 µM"

[[record]]
compound = "c1cc[n+](Cc2c3ccccc3cc3c2ccc2ccccc23)cc1"
result_type = "TGI"
value_measured = "8.87 µM"

[[record]]
compound = "C1CSCCSCCSCCSCCS1"
result_type = "TGI"
value_measured = "> 100 µM"

[[record]]
compound = "CC(=O)N1C(c2[nH]c3ccccc3c2Cc2ccccc2)CCN1c1ccccc1 (centres undefined)"
result_type = "TGI"
value_measured = "> 10 µM"

[[record]]
compound = "Cc1cc2c(cc1Cl)SC(NNCCO)=NS2(=O)=O"
result_type = "TGI"
value_measured = "> 100 µM"

[[record]]
compound = "CCOC(=O)/C(=C\\c1c[nH]c2ccccc12)P(=O)(OCC)OCC"
result_type = "TGI"
value_measured = "76.8 µM"

[[record]]
compound = "CCCCCCC(=O)OC[n+]1ccc(-c2c(COC(=O)NC(C)C)c(COC(=O)NC(C)C)c3n2CCC3)cc1"
result_type = "TGI"
value_measured = "98.9 µM"

[[record]]
compound = "CC(=O)[O-].CC(=O)[O-].O=C([CH-]C(=O)c1ccccc1)c1ccccc1.[Nd+3].[OH3+]"
result_type = "TGI"
value_measured = "> 100 µM"

[[record]]
compound = "COc1ccc(C[C@@H](C(=O)N[C@@H](C)C(N)=O)N(C)C(=O)[C@@H]2CCCN2C(=O)[C@H](CC(C)C)NC(=O)C(C)NC(=O)OCc2ccccc2)cc1 (some centres undefined) (Cbz-[ξA]LP[NMeY](Me)A-NH2)"
result_type = "TGI"
value_measured = "> 100 µM"

[[record]]
compound = "Nc1[nH]c(=O)nc2c1cnn2COCCO"
result_type = "TGI"
value_measured = "> 100 µM"

[[record]]
compound = "C[n+]1cccc(NC(=O)c2ccc3ccc4ccc(C(=O)Nc5ccc[n+](C)c5)nc4c3n2)c1"
result_type = "TGI"
value_measured = "> 100 µM"


* * *

Below is a list of entries, each paired with its recorded TGI value.
System: UACC-62 melanoma
Experiment: NCI tumour cell line growth inhibition, 48 h
Result Type: TGI

[[record]]
molecule = "c1ccc2c(c1)nc1ccccn12"
value_measured = "> 100 µM"

[[record]]
molecule = "C1CSCCSCCSCCSCCS1"
value_measured = "> 100 µM"

[[record]]
molecule = "COc1ccc(N=Nc2ccc(O)c(=O)cc2)cc1"
value_measured = "5.12 µM"

[[record]]
molecule = "COc1cc2c(Nc3ccc(-c4ccc(N)cc4)cc3)ncnc2c(OC)c1OC"
value_measured = "> 35.1 µM"

[[record]]
molecule = "Cc1ccc(NC(=S)NNC(=S)Nc2ccc(C)cc2)cc1"
value_measured = "> 100 µM"

[[record]]
molecule = "COC(=O)C1C(C(=O)O)C2(c3ccccc3)C(=O)C1(c1ccccc1)C(c1ccc(OC)cc1)=C2c1ccc(OC)cc1 (centres undefined)"
value_measured = "35.2 µM"

[[record]]
molecule = "CN1N=C(c2ccncc2)OC1c1cccc(F)c1 (centres undefined)"
value_measured = "> 100 µM"

[[record]]
molecule = "COc1ccc(OC(=O)N2C/C(=C\\c3ccccc3)C(=O)/C(=C/c3ccccc3)C2)cc1"
value_measured = "5.35 µM"

[[record]]
molecule = "COc1ccc(C2=C(c3ccccc3)C(=O)N3CCCC3C2)cc1 (centres undefined)"
value_measured = "> 100 µM"


* * *

Test system: SN12C renal
Assay: NCI tumour cell line growth inhibition, 48 h
Result Type: TGI

[[record]]
smiles_record = "NC(=O)c1c[nH]c2ncnc(N)c12"
value_measured = "> 100 µM"

[[record]]
smiles_record = "O=C1CCc2cc(Br)ccc2O1"
value_measured = "> 100 µM"

[[record]]
smiles_record = "Cc1n[nH]c(=O)n1/N=C/c1ccco1"
value_measured = "> 100 µM"

[[record]]
smiles_record = "O=C1/C(=C/c2ccc(Cl)cc2)CN(Cc2cn(CCCNc3ccnc4cc(Cl)ccc34)nn2)C/C1=C\\c1ccc(Cl)cc1"
value_measured = "2.77 µM"


* * *

System: HT29 colon
Assay: NCI tumour cell line growth inhibition, 48 h
Result Type: TGI

[[record]]
compound = "CC(=O)OC(C(=O)[O][Ge]([CH3])([CH3])[CH3])c1ccccc1 (stereo not drawn)"
result_type = "TGI"
value_measured = "> 100 µM"

[[record]]
compound = "COc1cc2c(Nc3ccc(-c4ccc(N)cc4)cc3)ncnc2c(OC)c1OC"
result_type = "TGI"
value_measured = "> 81.7 µM"

[[record]]
compound = "CC(C)(C)OC(=O)N(O)CCCn1cnc2c(NC3CC3)ncnc21"
result_type = "TGI"
value_measured = "> 100 µM"

[[record]]
compound = "O=C(O)C12C3CCC(C3)C1(C(=O)O)C1CCC2C1 (stereo not drawn)"
result_type = "TGI"
value_measured = "> 100 µM"

[[record]]
compound = "Cc1n[nH]c(=O)n1/N=C/c1ccco1"
result_type = "TGI"
value_measured = "> 100 µM"

[[record]]
compound = "CN(C)c1n2c3ccc([N+](=O)[O-])cc3n3c(N(C)C)[n+]4ccccc4c3c2c2cccc[n+]12"
result_type = "TGI"
value_measured = "> 100 µM"

[[record]]
compound = "C[C@@]12CC[C@@H](O)C[C@@H]1CC[C@H]1[C@H]2CC[C@@]2(C)[C@H](c3ccc(=O)oc3)CC[C@@]12O"
result_type = "TGI"
value_measured = "0.0467 µM"

[[record]]
compound = "O=C(Nn1c(-c2ccccc2)nc2ccccc2c1=O)c1cccc([N+](=O)[O-])c1"
result_type = "TGI"
value_measured = "> 100 µM"


* * *

Tested on: HS 578T breast
Test: NCI tumour cell line growth inhibition, 48 h
Below is a list of entries, each paired with its recorded TGI value.
Result Type: TGI

[[record]]
molecule = "Cc1ccc(NC(=S)NNC(=S)Nc2ccc(C)cc2)cc1"
assayed_target = "HS 578T breast"
result_type = "TGI"
value_measured = "> 100 µM"

[[record]]
molecule = "c1cc[n+](Cc2c3ccccc3cc3c2ccc2ccccc23)cc1"
assayed_target = "HS 578T breast"
result_type = "TGI"
value_measured = "8.65 µM"

[[record]]
molecule = "O=C1NC(c2ccc3ccccc3c2)Nc2ccccc21 (centres undefined)"
assayed_target = "HS 578T breast"
result_type = "TGI"
value_measured = "> 100 µM"

[[record]]
molecule = "CC(C)N(C(C)C)S(=O)(=O)CC12CCC(C/C1=N\\O)C2 (centres undefined)"
assayed_target = "HS 578T breast"
result_type = "TGI"
value_measured = "> 100 µM"

